Quick record: Kd, rCuaA (Ruminiclostridium cellulolyticum).

| compound | Kd (nM) |
| --- | --- |
| OC[C@H]1O[C@@H](O[C@H]2[C@H](O)[C@@H](O)C(O)O[C@@H]2CO)[C@H](O)[C@@H](O)[C@@H]1O (stereo partly shown) [G2, cellobiose] | 240 |
| OC[C@H]1O[C@@H](O[C@H]2[C@H](O)[C@@H](O)[C@H](O[C@H]3[C@H](O)[C@@H](O)[C@H](O[C@H]4[C@H](O)[C@@H](O)[C@H](O[C@H]5[C@H](O)[C@@H](O)C(O)O[C@@H]5CO)O[C@@H]4CO)O[C@@H]3CO)O[C@@H]2CO)[C@H](O)[C@@H](O)[C@@H]1O (stereo partly shown) [G5, cellopentaose] | 1860 |
| OC[C@H]1O[C@@H](O[C@H]2[C@H](O)[C@@H](O)[C@H](O[C@H]3[C@H](O)[C@@H](O)[C@H](O[C@H]4[C@H](O)[C@@H](O)C(O)O[C@@H]4CO)O[C@@H]3CO)O[C@@H]2CO)[C@H](O)[C@@H](O)[C@@H]1O (stereo partly shown) [G4, cellotetraose] | 644 |
| OC[C@H]1O[C@@H](O[C@H]2[C@H](O)[C@@H](O)[C@H](O[C@H]3[C@H](O)[C@@H](O)C(O)O[C@@H]3CO)O[C@@H]2CO)[C@H](O)[C@@H](O)[C@@H]1O (stereo partly shown) [G3, cellotriose] | 405 |

* * *

biological target: UniProt B8I427
Sequence (B8I427 entry or part of it): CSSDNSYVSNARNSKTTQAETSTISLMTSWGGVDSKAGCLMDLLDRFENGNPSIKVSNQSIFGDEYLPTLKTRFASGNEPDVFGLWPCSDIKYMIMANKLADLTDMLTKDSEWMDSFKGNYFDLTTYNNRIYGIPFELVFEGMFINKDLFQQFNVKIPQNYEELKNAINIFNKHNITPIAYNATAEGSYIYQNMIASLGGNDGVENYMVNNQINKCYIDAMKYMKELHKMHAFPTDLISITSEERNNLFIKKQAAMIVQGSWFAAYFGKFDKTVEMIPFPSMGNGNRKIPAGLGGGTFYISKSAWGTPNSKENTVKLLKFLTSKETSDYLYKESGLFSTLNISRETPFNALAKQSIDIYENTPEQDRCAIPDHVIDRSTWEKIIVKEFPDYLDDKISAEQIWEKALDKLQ
assay-readout: Kd (nM)

| compound | assay-readout | measurement-units | test-result |
| --- | --- | --- | --- |
| OC[C@H]1O[C@@H](O[C@H]2[C@H](O)[C@@H](O)C(O)O[C@@H]2CO)[C@H](O)[C@@H](O)[C@@H]1O (stereo partly shown) [G2, cellobiose] | Kd | nM | 23 |
